B1: INTS3 (parent)
chain: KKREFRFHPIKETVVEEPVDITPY

Variants of: B1
test: protein stability index of a GFP-peptide fusion (GPS, HEK-293T) (PSI 1-6); higher = more stable;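 note: lentivirally expressed fusions sorted by FACS into six bins by GFP to DsRed ratio, PSI derived from sequencing read proportions per bin multiplied by bin number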
cond: c terminus: a fixed tail appended
property-label: protein stability index
Just the number, please, no unit after it.

Answered examples (6):
- T13F: 1.54
- T13E: 2.39
- F5I: 4.06
- I10E: 2.4
- E17Y: 2.06
- V19R: 2.37

The measured protein stability index associated with F7V reads 4.65

The measured protein stability index associated with P9Y reads 1.99

The measured protein stability index associated with P18W reads 2.29

The measured protein stability index associated with T22K reads 1.88

The measured protein stability index associated with E17N reads 2.19
